# test name: Plasma protein binding in human at 5 uM measured after 24 hrs by LC-MS/MS analysis
# Format: ADME, cell-free
# assay setup: read-out: PPB (converted)

>  <compound>
COc1cc(N[C@H](C(=O)c2c[nH]c3ccc(OC(F)(F)F)cc23)c2ccc(Cl)cc2OC)cc(S(C)(=O)=O)c1 [MOSNODENVIR]

>  <fraction unbound at 24 h, 5 µM>
0.0014

$$$$

---

# test name: Clearance in Sprague-Dawley rat assessed as liver blood flow at 2.5 mg/kg, iv measured after 24 hrs by LC-MS/MS analysis
# Assay type: ADME, organism-based
# assay setup: in vivo
Lab note: compare LBF with 30%, writing MET if less and NOT MET if equal or more.

>  <compound>
COc1cc(N[C@H](C(=O)c2c[nH]c3ccc(OC(F)(F)F)cc23)c2ccc(Cl)cc2OC)cc(S(C)(=O)=O)c1

>  <label class>
MET

$$$$
>  <compound>
COc1cc(NC(C(=O)c2c[nH]c3cc(OC)c(C)cc23)c2ccc(F)cc2OC)cc(S(C)(=O)=O)c1 (single isomer, unassigned; (+))

>  <label class>
MET

$$$$
>  <compound>
COc1cc(NC(C(=O)c2c[nH]c3cc(OC)c(C)cc23)c2ccc(Cl)cc2OC)cc(S(C)(=O)=O)c1 (configuration not stated)

>  <label class>
NOT MET

$$$$
>  <compound>
COc1cc(NC(C(=O)c2c[nH]c3cc(OC)c(C)cc23)c2ccc(F)cc2OCCO)cc(S(C)(=O)=O)c1 (single isomer, unassigned; (+))

>  <label class>
NOT MET

$$$$
>  <compound>
COc1cc(NC(C(=O)c2c[nH]c3cc(OC)c(C)cc23)c2ccc(Cl)cc2OCCO)cc(S(C)(=O)=O)c1 (single isomer, unassigned; (+))

>  <label class>
NOT MET

$$$$
>  <compound>
COc1cc(NC(C(=O)c2c[nH]c3cc(F)ccc23)c2ccc(F)cc2OC)cc(S(C)(=O)=O)c1 (configuration not stated)

>  <label class>
MET

$$$$
>  <compound>
COc1cc(NC(C(=O)c2c[nH]c3cc(F)ccc23)c2ccc(F)cc2OCCO)cc(S(C)(=O)=O)c1 (single isomer, unassigned; (+))

>  <label class>
NOT MET

$$$$
